# maps each entry to its pIC50
Tested on: DLD1 reporter
protocol-summary: reporter assay (DLD1 reporter assay)
Assay type: cell-based
measurement-context: read-out: DLD1 4% Abs IC50; DLD1 4%
pIC50: −log10 of the molar value.

For orientation, consider the following solved cases.
State the recorded pIC50 for this entry: CC(=O)N1CCC[C@]12CC=CCCCC1(CCCC=CCCCOC(=O)N3CC[C@@]4(C3)NC(=O)[C@H](CCCCNC(=O)CC[C@@H](C(=O)N[C@@H](CC(C)C)C(N)=O)NC(=O)[C@H](Cc3csc5ccccc35)NC(=O)[C@H](Cc3ccccc3C(F)(F)F)NC4=O)NC(=O)[C@H](Cc3ccccc3)NC(=O)[C@H](C)NC(=O)[C@H](CC(C)(C)C)NC(=O)[C@H](Cc3cccc(C(=O)O)c3)NC(=O)[C@H](CC(=O)O)NC1=O)NC(=O)[C@H](CC(C)(C)C)NC(=O)[C@H](CC(=O)O)NC2=O (single isomer, unassigned) [I-109] 5.30 to 6.00

State the recorded pIC50 for this entry: CC(=O)N1CCC[C@]12CC=CCCCC1(CCCC=CCCCOC(=O)N3CC[C@@]4(C3)NC(=O)[C@H](CCCCNC(=O)CC[C@@H](C(=O)N[C@@H](CC(C)C)C(=O)N[C@@H](CO)C(N)=O)NC(=O)[C@H](Cc3csc5ccccc35)NC(=O)[C@H](Cc3ccccc3C(F)(F)F)NC4=O)NC(=O)[C@H](Cc3ccccc3)NC(=O)[C@H](C)NC(=O)C(C)(C)NC(=O)[C@H](Cc3cccc(C(=O)O)c3)NC(=O)[C@H](CC(=O)O)NC1=O)NC(=O)[C@H](CC(C)(C)C)NC(=O)[C@H](CC(=O)O)NC2=O (relative stereo) [I-138] ≥ 6.00

State the recorded pIC50 for this entry: CC(=O)N1CCC[C@]12CC=CCCCC1(CCCC=CCCCOC(=O)N3CC[C@@]4(C3)NC(=O)[C@H](CCCCNC(=O)CC[C@@H](C(=O)N[C@@H](C)C(N)=O)NC(=O)[C@H](Cc3csc5ccccc35)NC(=O)[C@H](Cc3ccccc3C(F)(F)F)NC4=O)NC(=O)[C@H](Cc3ccccc3)NC(=O)[C@H](C)NC(=O)[C@H](CC(C)(C)C)NC(=O)[C@H](Cc3cccc(C(=O)O)c3)NC(=O)[C@H](CC(=O)O)NC1=O)NC(=O)[C@H](CC(C)(C)C)NC(=O)[C@H](CC(=O)O)NC2=O (single isomer, unassigned) [I-99] ≥ 6.00

Next:
State the recorded pIC50 for this entry: CC(=O)N1CCC[C@]12CC=CCCCC1(CCCC=CCCCOC(=O)N3CC[C@@]4(C3)NC(=O)[C@H](CCCCNC(=O)CC[C@@H](C(=O)N[C@@H](CC(C)C)C(N)=O)NC(=O)[C@H](Cc3csc5ccccc35)NC(=O)[C@H](Cc3ccccc3C(F)(F)F)NC4=O)NC(=O)[C@H](Cc3ccccc3)NC(=O)[C@H](C)NC(=O)[C@H](C)NC(=O)[C@H](CN(CC(=O)O)CC(F)(F)F)NC(=O)[C@H](CC(=O)O)NC1=O)NC(=O)[C@H](CC(C)(C)C)NC(=O)[C@H](CC(=O)O)NC2=O (relative stereo) [I-128] 5.30 to 6.00

Hey, just so you know, these numbers are from patent US20260207704A1.
